# System: SK-OV-3 ovarian
# assay explanation: NCI-60 one-dose screen, 48 h
# conditions used: 10 µM
This is part of a sample that, as a whole, favours compounds with a hit. Of some 83,000 tested, about 20% had one in any assay. Activity calls are given as the source filed them. How the source made its calls: active means growth percent below 10; inactive means the rest.
// one of YES (active), NO (inactive), no free text

Some entries whose results are on file:
[
  {
    "chemical string": "CO[C@H]1C[C@@H]2CC[C@@H](C)[C@@](O)(O2)C(=O)C(=O)N2CCCC[C@H]2C(=O)O[C@H]([C@H](C)C[C@@H]2CC[C@@H](O)[C@H](OC)C2)CC(=O)[C@H](C)C=C(C)[C@@H](O)[C@@H](OC)C(=O)[C@H](C)C[C@H](C)/C=C/C=C/C=C1C",
    "category label": "NO"
  },
  {
    "chemical string": "COc1ccccc1NC(=O)C1=C(C)NC(C)=C(C(=O)Nc2ccccc2OC)C1c1cccc([N+](=O)[O-])c1",
    "category label": "NO"
  },
  {
    "chemical string": "O=C(O)COCC(=O)O",
    "category label": "NO"
  }
]

// param item: CC(=O)NCc1cc(C)c(C)cc1C ; yields the recorded call
NO

// param item: COC(=O)c1ccccc1Br ; yields the recorded call
NO

// param item: Nc1ncnc2[nH]ncc12 ; yields the recorded call
YES

----------
# Test system: SF-539 CNS
# assay explanation: NCI-60 one-dose screen, 48 h (100 = growth as untreated, 0 = no growth, -100 = all killed)
# conditions used: 10 µM
The panel holds about 83,000 compounds, 20% with a hit somewhere; the sample as a whole holds those more often.
Here the recorded growth is given for each entry.
The response must be a number in % with no trailing unit.

[
  {
    "molecule": "CC(C)OC(C(=O)O)c1ccccc1 (centres undefined)",
    "growth (%)": 102
  }
]

// next entry
Give its growth value. Item: COc1cc2cc(c1Cl)N(C)C(=O)C[C@H](OC(=O)[C@H](C)N(C)C(C)=O)[C@]1(C)O[C@H]1[C@H](C)[C@@H]1C[C@@](O)(NC(=O)O1)[C@H](OC)C=C/C=C(\C)C2
-23.5

----------
# System: NCI-H460 lung
# assay explanation: NCI-60 one-dose screen, 48 h (100 = growth as untreated, 0 = no growth, -100 = all killed)
# conditions used: 10 µM
# Experimental: Growth inhibition of the NCI-H460 human Non-Small Cell Lung tumor cell line is measured as a screen for anti-cancer activity. Cells are grown in 96 well plates and exposed to the test compound for 48 hours. Compounds are tested at a single concentration, which is 10^-5 M for most compounds. The reported endpoint is percent growth (GI% or GIPRCNT), where numbers from 0 - 100% represent growth inhibition, and numbers from -100% - 0 represent cell death. […]
Compounds without any hit were thinned out: in the full panel of roughly 83,000, 20% have a hit.
measurement type: growth (%)
The response must be a number in % with no trailing unit.

[
  {
    "compound": "COc1cccc(COC(=O)Nc2ccccc2)c1OC",
    "observed measurement": 103
  },
  {
    "compound": "Nc1ccccc1C(=O)Nc1ccc(Cl)cc1Cl",
    "observed measurement": 104
  },
  {
    "compound": "COc1ccccc1C1OC2=Nc3cc(C)c(C)cc3NC2C1=O (stereo unspecified)",
    "observed measurement": 14.1
  },
  {
    "compound": "COc1ccc(C(=O)C(Br)C(Br)C(=O)O)cc1 (stereo unspecified)",
    "observed measurement": 104
  },
  {
    "compound": "O=c1cc(-c2ccccc2)[nH]c(=S)[nH]1",
    "observed measurement": 108
  }
]

Give its growth value. Item: CC1(C)S(=O)(=O)OCCOS1(=O)=O
105

Give its growth value. Item: Oc1ccc(N=Nc2ccc(Br)cc2)c(O)c1
8.13

Give its growth value. Item: CC(=O)/C(Cc1ccccc1)=N/O
105

Give its growth value. Item: COc1cc([C@@H]2c3cc4c(cc3[C@H](O)[C@H]3COC(=O)[C@H]23)OCO4)cc(OC)c1OC
9.21

Give its growth value. Item: NCCC(=O)c1ccc(Cl)cc1
107

Give its growth value. Item: c1ncc2[nH]cnc2n1
105
